FYI, the data here is from paper PMC13626384.

So I've got a bunch of compounds here, and I need their Pe (A-B) values.
# Tested on: Caco-2 cells
# PROCEDURE DETAILS: Caco-2 cell permeability and efflux
# Type: in vitro ADME, human
# TEST PARAMETERS: Caco-2, apical to basolateral

Solved cases (3 shown):
CC(C)C[C@H](NC(=O)[C@@H]1Cc2c(F)c(F)c(c(F)c2F)S(=O)(=O)c2cccc(c2)CC(=O)N[C@@H](C(C)C)C(=O)N1)C(=O)[C@@]1(C)CO1    7.2 10^−6 cm/sec
CC(C)C[C@H](NC(=O)[C@@H]1Cc2c(F)c(F)c(c(F)c2F)Sc2cccc(c2)CC(=O)NC(C)(C)C(=O)N1)C(=O)[C@@]1(C)CO1    3.6 10^−6 cm/sec
CC(C)C[C@H](NC(=O)[C@@H]1Cc2c(F)c(F)c(c(F)c2F)Sc2cccc(c2)CC(=O)N[C@@H](C(C)C)C(=O)N1)C(=O)[C@@]1(C)CO1    25.1 10^−6 cm/sec

Now examine the next entry.
Requested field: Pe (A-B). Item: `CC(C)C[C@H](NC(=O)[C@@H]1CSCCCCCCCCCC(=O)N[C@@H](C(C)C)C(=O)N1)C(=O)[C@@]1(C)CO1`
9.8 10^−6 cm/sec

###

# Test system: D283-med cell line
# PROCEDURE DETAILS: Cytotoxicity against D283-med cells
# Format: cell-based, human
# TEST PARAMETERS: Homo sapiens, D283 Med, read-out: D283-med IC50
ASSAY READOUT: pIC50
Answers are plain numbers, as −log10 of the molar value.

Requested field: pIC50. Item: C[C@@]12OC(=O)[C@]1([C@@H](O)[C@@H]1C=CCCC1)NC(=O)[C@@H]2CCCl [Marizomib, reference compound]
7.15

###

# PROCEDURE DETAILS: Caco-2 cell permeability and efflux
# Assay type: in vitro ADME, human
# TEST PARAMETERS: human, Caco-2, % Recovery (B-A), Caco-2, B-A direction
ASSAY READOUT: recovery (%)
Give bare numbers, in %.

Solved cases (2 shown):
CC(C)C[C@H](NC(=O)C(CSc1c(F)c(F)c(F)c(F)c1F)NC(=O)[C@@H](NC(=O)c1cc(Cl)ccc1Cl)C(C)C)C(=O)[C@@]1(C)CO1 (stereo in doubt)    42
CC(C)C[C@H](NC(=O)[C@@H]1CS(=O)(=O)CCCCCCCCCC(=O)N[C@@H](C(C)C)C(=O)N1)C(=O)[C@@]1(C)CO1    89

Now examine the next entry.
Requested field: recovery. Item: `CC(C)C[C@H](NC(=O)[C@@H]1CSCCOCCOCCC(=O)N[C@@H](C(C)C)C(=O)N1)C(=O)[C@@]1(C)CO1`
101

###

# PROCEDURE DETAILS: Liver microsomal stability
# TEST PARAMETERS: mouse liver microsomes
ASSAY READOUT: Microsomal Stability Clearance Category

Solved cases (4 shown):
CC(C)C[C@H](NC(=O)[C@@H]1CS(=O)(=O)CCCCCCCCCC(=O)N[C@@H](C(C)C)C(=O)N1)C(=O)[C@@]1(C)CO1    High
CC(C)C[C@H](NC(=O)C(CSc1c(F)c(F)c(F)c(F)c1F)NC(=O)[C@@H](NC(=O)c1cc(Cl)ccc1Cl)C(C)C)C(=O)[C@@]1(C)CO1 (stereo in doubt)    High
C[C@@]12OC(=O)[C@]1([C@@H](O)[C@@H]1C=CCCC1)NC(=O)[C@@H]2CCCl [Marizomib, reference compound]    High
CC(C)C[C@H](NC(=O)C(CSc1c(F)c(F)c(F)c(F)c1F)NC(=O)[C@@H](NC(=O)CCc1ccccc1)C(C)C)C(=O)[C@@]1(C)CO1 (stereo in doubt)    High

Requested field: Microsomal Stability Clearance Category. Item: `CC(C)C[C@H](NC(=O)[C@@H]1Cc2c(F)c(F)c(c(F)c2F)Sc2cccc(c2)CC(=O)N[C@@H](C(C)C)C(=O)N1)C(=O)[C@@]1(C)CO1`
High

###

# Tested on: H460 cell line
# PROCEDURE DETAILS: Cytotoxicity against H460 cells
# Assay type: cell-based
# TEST PARAMETERS: read-out: H460 IC50; non-small cell lung cancer cell line
ASSAY READOUT: IC50 (µM)
Give bare numbers, in µM.

CC(C)C[C@H](NC(=O)[C@@H]1Cc2ccc(cc2)SCCCCCC(=O)NC(C)(C)C(=O)N1)C(=O)[C@@]1(C)CO1    2.33

// each compound listed below needs its IC50
1. CC(C)C[C@H](NC(=O)[C@@H]1Cc2c(F)c(F)c(c(F)c2F)[S+]([O-])c2cccc(c2)CC(=O)N[C@@H](C(C)(C)O)C(=O)N1)C(=O)[C@@]1(C)CO1 (stereo partly shown)
2. CC(C)C[C@H](NC(=O)[C@@H]1Cc2c(F)c(F)c(c(F)c2F)Sc2cccc(c2)CC(=O)N[C@@H]([C@@H](C)O)C(=O)N1)C(=O)[C@@]1(C)CO1
3. CC(C)C[C@H](NC(=O)[C@@H]1Cc2c(F)c(F)c(c(F)c2F)Sc2ccc(cc2)CC(=O)N[C@@H](C(C)C)C(=O)N1)C(=O)[C@@]1(C)CO1

1.64
0.186
0.754

// each compound listed below needs its IC50
1. CC(C)C[C@H](NC(=O)[C@@H]1Cc2c(F)c(F)c(c(F)c2F)Sc2cccc(c2)CC(=O)N[C@@H](C(C)C)CC(=O)N1)C(=O)[C@@]1(C)CO1
2. CC(=O)O[C@@H](C)[C@@H]1NC(=O)Cc2cccc(c2)S(=O)(=O)c2c(F)c(F)c(c(F)c2F)C[C@@H](C(=O)N[C@@H](CC(C)C)C(=O)[C@@]2(C)CO2)NC1=O
3. CC(C)C[C@@H](NC(=O)[C@@H]1Cc2ccc(cc2)S(=O)(=O)CCCCCC(=O)NC(C)(C)C(=O)N1)C(=O)[C@@]1(C)CO1
4. CC(C)C[C@H](NC(=O)[C@@H]1Cc2ccc(cc2)OCCCCCC(=O)N[C@@H](C(C)C)C(=O)N1)C(=O)[C@@]1(C)CO1

5.38
0.549
1.72
0.053

// each compound listed below needs its IC50
1. CC(C)C[C@H](NC(=O)[C@@H]1CSCCCCCCCCCC(=O)N[C@@H](C(C)C)C(=O)N1)C(=O)[C@@]1(C)CO1
2. CC(C)C[C@H](NC(=O)[C@@H]1Cc2c(F)c(F)c(c(F)c2F)Sc2cccc(c2)CC(=O)N[C@@H](C(C)C)C(=O)N1)C(=O)[C@@]1(C)CO1
3. CC(C)C[C@H](NC(=O)[C@@H]1Cc2c(F)c(F)c(c(F)c2F)S(=O)(=O)c2cccc(c2)CC(=O)N[C@@H](C(C)C)C(=O)N1)C(=O)[C@@]1(C)CO1
4. CC(C)C[C@H](NC(=O)[C@@H]1Cc2c(F)c(F)c(c(F)c2F)S(=O)(=O)c2ccc(cc2)CCC(=O)N[C@@H](C(C)C)C(=O)N1)C(=O)[C@@]1(C)CO1

0.079
2.59
0.079
0.47

// each compound listed below needs its IC50
1. CC(C)C[C@H](NC(=O)[C@@H]1Cc2c(F)c(F)c(c(F)c2F)S(=O)(=O)c2cccc(c2)CC(=O)N[C@@H](C(C)C)CC(=O)N1)C(=O)[C@@]1(C)CO1
2. CC(C)C[C@H](NC(=O)[C@@H]1Cc2c(F)c(F)c(c(F)c2F)S(=O)(=O)c2cccc(c2)CC(=O)N[C@@H](C(C)(C)O)C(=O)N1)C(=O)[C@@]1(C)CO1
3. Cn1cc(CNCC2CCN(c3ncc(C(=O)NO)cn3)CC2)c2ccccc21 [Quisinostat, reference compound]
4. CC(C)C[C@H](NC(=O)C(CSc1c(F)c(F)c(F)c(F)c1F)NC(=O)[C@@H](NC(=O)CCc1ccccc1)C(C)C)C(=O)[C@@]1(C)CO1 (stereo in doubt)
5. CCCCCC(=O)N[C@H](C(=O)N[C@@H](CCS(C)(=O)=O)C(=O)N[C@@H](CC(C)C)C(=O)[C@@]1(C)CO1)C(C)C [Carmaphycin B, reference compound]

1: 2.36; 2: 0.41; 3: 0.03; 4: 0.632; 5: 0.111

// each compound listed below needs its IC50
1. CC(C)C[C@H](NC(=O)[C@@H]1Cc2c(F)c(F)c(c(F)c2F)S(=O)(=O)c2cccc(c2)CC(=O)NCC(=O)N1)C(=O)[C@@]1(C)CO1
2. CC(C)C[C@H](NC(=O)[C@@H]1Cc2c(F)c(F)c(c(F)c2F)Sc2cccc(c2)CC(=O)NC(C)(C)C(=O)N1)C(=O)[C@@]1(C)CO1 [Compound 31]

[4.54, 0.175]

###

# TARGET OF ASSAY: human immunoproteasome (i20S) β2 (Homo sapiens, UniProt P40306+P49720)
# PROCEDURE DETAILS: Proteasome subunit inhibition, i20S β2
# Format: biochemical
So I've got a bunch of compounds here, and I need their pIC50 values.
Give bare numbers, as −log10 of the molar value.

CC(C)C[C@H](NC(=O)[C@@H]1CSCCOCCOCCC(=O)N[C@@H](C(C)C)C(=O)N1)C(=O)[C@@]1(C)CO1    6.56
CC(C)C[C@H](NC(=O)[C@@H]1CS(=O)(=O)CCCCCCCCCC(=O)N[C@@H](C(C)C)C(=O)N1)C(=O)[C@@]1(C)CO1    7.64

Now examine the next entry.
Requested field: pIC50. Item: C[C@@]12OC(=O)[C@]1([C@@H](O)[C@@H]1C=CCCC1)NC(=O)[C@@H]2CCCl [Marizomib, reference compound]
6.68
